Hello, the source for this data is ChEMBL document CHEMBL1201861, in case you need it.

Give measured IC50 for each item. Keep answers brief.
- System: MES-SA;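 also: growth inhibition of human MES-SA cells, read out with a cell viability assay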
- procedureSummary: cells
- Format: functional, cell-based, Homo sapiens
- runConditions: Homo sapiens, MES-SA
- Description: SANGER: Inhibition of human MES-SA cell growth in a cell viability assay.

Exercise: Identify IC50 associated with the compound Cc1ccc(Nc2nccc(N(C)c3ccc4c(C)n(C)nc4c3)n2)cc1S(N)(=O)=O [PAZOPANIB]
Key: > 8000 nM

Exercise: Identify IC50 associated with the compound CCC1=C[C@@H]2CN(C1)Cc1c([nH]c3ccccc13)[C@@](C(=O)OC)(c1cc3c(cc1OC)N(C)[C@H]1[C@@](O)(C(=O)OC)[C@H](OC(C)=O)[C@]4(CC)C=CCN5CC[C@]31[C@@H]54)C2 [VINORELBINE]
Key: 3.11 nM

Exercise: Identify IC50 associated with the compound Cc1cnc(-c2cnc(NCCNc3ccc(C#N)cn3)nc2-c2ccc(Cl)cc2Cl)[nH]1 [LADUVIGLUSIB]
Key: > 2560 nM

Exercise: Identify IC50 associated with the compound C[C@]1(O)C[C@@H](c2nc(-c3ccc4ccc(-c5ccccc5)nc4c3)c3c(N)nccn32)C1 [LINSITINIB]
Key: > 2560 nM
